protocol-text: MTT assay, PhTERT-SEAP (H1299)
Assay type: cell-based, human
condition-label: human, H1299 cells carrying the PhTERT-SEAP reporter; Conc. 10 μM; PhTERT-SEAP (H1299); read-out: Relative MTT viability (%) (converted)
# viability at 10 μM listing for each entry below
measured-property: viability at 10 μM (%)

O=C(CCl)Nc1ccc2c(c1NC(=O)c1ccc(Cl)cc1)C(=O)c1ccccc1C2=O ... 5.17
O=C(CN1CCN(c2ccccc2F)CC1)Nc1ccc2c(c1NC(=O)c1ccccc1)C(=O)c1ccccc1C2=O ... 92.3
O=C(CN1CCN(c2ccccc2)CC1)Nc1ccc2c(c1NC(=O)c1ccccc1)C(=O)c1ccccc1C2=O ... 110
Cc1ccc(C(=O)Nc2c(NC(=O)CN3CCSCC3)ccc3c2C(=O)c2ccccc2C3=O)cc1 ... 70
O=C(CCl)Nc1ccc2c(c1NC(=O)c1ccc(C(F)(F)F)cc1)C(=O)c1ccccc1C2=O ... 6.58
O=C(CCl)Nc1ccc2c(c1NC(=O)c1ccc(F)cc1)C(=O)c1ccccc1C2=O ... 4.2
Cc1ccc(C(=O)Nc2c(NC(=O)CN3CCC4(CC3)OCCO4)ccc3c2C(=O)c2ccccc2C3=O)cc1 ... 55.5
Cc1ccc(C(=O)Nc2c(NC(=O)CN3CCCC3)ccc3c2C(=O)c2ccccc2C3=O)cc1 ... 69
O=C(CCl)Nc1ccc2c(c1NC(=O)Cc1ccccc1)C(=O)c1ccccc1C2=O ... 5.94
Cc1ccc(C(=O)Nc2c(NC(=O)CN3CCN(CCO)CC3)ccc3c2C(=O)c2ccccc2C3=O)cc1 ... 44.8

----------
protocol-text: MTT assay, PhTERT-SEAP (H1299)
Type: cell-based, human
condition-label: human, H1299 cells carrying the PhTERT-SEAP reporter; Conc. 1 μM; PhTERT-SEAP (H1299); read-out: Relative MTT viability (%)
Strictly below 80% in viability at 1 μM: rule met. Otherwise: rule not met.

O=C(CCl)Nc1ccc2c(c1NC(=O)c1ccccc1Cl)C(=O)c1ccccc1C2=O ... rule not met
Nc1c(NC(=O)CCl)ccc2c1C(=O)c1ccccc1C2=O ... rule met
Cc1ccc(C(=O)Nc2c(NC(=O)CN(C)CCc3ccccn3)ccc3c2C(=O)c2ccccc2C3=O)cc1 ... rule not met
Cc1ccccc1C(=O)Nc1c(NC(=O)CCl)ccc2c1C(=O)c1ccccc1C2=O ... rule met
Cc1cccc(C(=O)Nc2c(NC(=O)CCl)ccc3c2C(=O)c2ccccc2C3=O)c1 ... rule met
O=C(CCl)Nc1ccc2c(c1NC(=O)c1ccccc1C(F)(F)F)C(=O)c1ccccc1C2=O ... rule not met
O=C(CCl)Nc1ccc2c(c1NC(=O)C1CC1)C(=O)c1ccccc1C2=O ... rule not met
O=C(CCCl)Nc1ccc2c(c1NC(=O)CCCl)C(=O)c1ccccc1C2=O ... rule not met

----------
measured-property: melting point

O=C(CCl)Nc1ccc2c(c1NC(=O)c1cccc(F)c1)C(=O)c1ccccc1C2=O ... 197 to 198 °C
O=C(CCl)Nc1ccc2c(c1NC(=O)c1ccc(C(F)(F)F)cc1)C(=O)c1ccccc1C2=O ... 203 to 204 °C
O=C(CCl)Nc1ccc2c(c1NC(=O)C1CC1)C(=O)c1ccccc1C2=O ... 191 to 192 °C
COc1ccccc1N1CCN(CC(=O)Nc2ccc3c(c2NC(=O)c2ccc(C)cc2)C(=O)c2ccccc2C3=O)CC1 ... 215 to 216 °C
O=C(CCl)Nc1ccc2c(c1NC(=O)CCCl)C(=O)c1ccccc1C2=O ... 182 to 183 °C
Cc1ccc(C(=O)Nc2c(NC(=O)CN3CCC4(CC3)OCCO4)ccc3c2C(=O)c2ccccc2C3=O)cc1 ... 197 to 198 °C
O=C(CCl)Nc1ccc2c(c1NC(=O)c1cccc(C(F)(F)F)c1)C(=O)c1ccccc1C2=O ... 190 to 191 °C
O=C(CCCl)Nc1ccc2c(c1NC(=O)CCCl)C(=O)c1ccccc1C2=O ... 179 to 180 °C
CC(Cl)C(=O)Nc1c(NC(=O)CCl)ccc2c1C(=O)c1ccccc1C2=O (centres unmarked) ... 175 to 176 °C
Cc1ccc(C(=O)Nc2c(NC(=O)CN(C)C)ccc3c2C(=O)c2ccccc2C3=O)cc1 ... 190 to 191 °C
O=C(CCl)Nc1ccc2c(c1NC(=O)CCl)C(=O)c1ccccc1C2=O ... 254 to 255 °C
O=C(CCl)Nc1ccc2c(c1NC(=O)COc1ccccc1)C(=O)c1ccccc1C2=O ... 217 to 218 °C
Cc1ccc(C(=O)Nc2c(NC(=O)CN3CCN(c4ccccn4)CC3)ccc3c2C(=O)c2ccccc2C3=O)cc1 ... 258 to 259 °C
O=C(CCl)Nc1ccc2c(c1NC(=O)c1ccccc1)C(=O)c1ccccc1C2=O ... 203 to 204 °C
O=C(CCl)Nc1ccc2c(c1NC(=O)c1cccc(Cl)c1)C(=O)c1ccccc1C2=O ... 188 to 189 °C
Cc1cccc(C(=O)Nc2c(NC(=O)CCl)ccc3c2C(=O)c2ccccc2C3=O)c1 ... 202 to 203 °C
O=C(CN1CCN(c2ccccc2)CC1)Nc1ccc2c(c1NC(=O)c1ccccc1)C(=O)c1ccccc1C2=O ... 225 to 226 °C

----------
protocol-text: MTT assay, PhTERT-SEAP (H1299)
Format: cell-based, human
condition-label: human, H1299 cells carrying the PhTERT-SEAP reporter; Conc. 10 μM; PhTERT-SEAP (H1299); read-out: Relative MTT viability (%) (converted)
viability at 10 μM strictly less than 70% = True. Otherwise False.

Cc1ccc(C(=O)Nc2c(NC(=O)CN3CCOCC3)ccc3c2C(=O)c2ccccc2C3=O)cc1 [CC-41] ... True
COc1ccccc1N1CCN(CC(=O)Nc2ccc3c(c2NC(=O)c2ccc(C)cc2)C(=O)c2ccccc2C3=O)CC1 [CC-48] ... False
O=C(CCl)Nc1ccc2c(c1NC(=O)CSc1ccccc1)C(=O)c1ccccc1C2=O [CC-32] ... True
O=C(CCl)Nc1ccc2c(c1NC(=O)Cc1ccc(F)cc1)C(=O)c1ccccc1C2=O [CC-24] ... True
Cc1ccc(C(=O)Nc2c(NC(=O)CN(C)CC3OCCO3)ccc3c2C(=O)c2ccccc2C3=O)cc1 [CC-36] ... False
Cc1ccc(C(=O)Nc2c(NC(=O)CN3CCN(c4ccccc4C#N)CC3)ccc3c2C(=O)c2ccccc2C3=O)cc1 [CC-47] ... True
O=C(CCl)Nc1ccc2c(c1NC(=O)c1cccc(C(F)(F)F)c1)C(=O)c1ccccc1C2=O [CC-20] ... True
Cc1ccc(C(=O)Nc2c(NC(=O)CN(C)CCc3ccccn3)ccc3c2C(=O)c2ccccc2C3=O)cc1 [CC-37] ... True
Cc1ccc(C(=O)Nc2c(NC(=O)CN3CCN(C)CC3)ccc3c2C(=O)c2ccccc2C3=O)cc1 [CC-43] ... True
O=C(CCl)Nc1ccc2c(c1NC(=O)c1ccccc1C(F)(F)F)C(=O)c1ccccc1C2=O [CC-19] ... True
Cc1ccc(C(=O)Nc2c(NC(=O)CN3CCN(c4ccccn4)CC3)ccc3c2C(=O)c2ccccc2C3=O)cc1 [CC-49] ... False
O=C(CCl)Nc1ccc2c(c1NC(=O)c1cc(C(F)(F)F)ccc1C(F)(F)F)C(=O)c1ccccc1C2=O [CC-22] ... True
O=C(CCCCl)Nc1ccc2c(c1NC(=O)CCCCl)C(=O)c1ccccc1C2=O [CC-03] ... False
Cc1ccc(C(=O)Nc2ccc3c(c2NC(=O)c2ccc(C)cc2)C(=O)c2ccccc2C3=O)cc1 [CC-04] ... False
O=C(CCl)Nc1ccc2c(c1NC(=O)c1ccno1)C(=O)c1ccccc1C2=O [CC-29] ... True
O=C(CCl)Nc1ccc2c(c1NC(=O)c1cccc(Cl)c1)C(=O)c1ccccc1C2=O [CC-17] ... True
Cc1ccc(C(=O)Nc2c(NC(=O)CCl)ccc3c2C(=O)c2ccccc2C3=O)cc1 [CC-12] ... True
O=C(CCl)Nc1ccc2c(c1NC(=O)c1cccc(F)c1)C(=O)c1ccccc1C2=O [CC-14] ... True
O=C(CCl)Nc1ccc2c(c1NC(=O)CCCl)C(=O)c1ccccc1C2=O [CC-07] ... False
O=C(CCl)Nc1ccc2c(c1NC(=O)CCCCl)C(=O)c1ccccc1C2=O [CC-08] ... False
O=C(CCl)Nc1ccc2c(c1NC(=O)c1ccccc1F)C(=O)c1ccccc1C2=O [CC-13] ... True
O=C(CCCl)Nc1ccc2c(c1NC(=O)CCCl)C(=O)c1ccccc1C2=O [CC-02] ... False
Cc1ccc(C(=O)Nc2c(NC(=O)CN(C)C)ccc3c2C(=O)c2ccccc2C3=O)cc1 [CC-35] ... False
O=C(CCl)Nc1ccc2c(c1NC(=O)COc1ccccc1)C(=O)c1ccccc1C2=O [CC-31] ... True
Cc1ccc(C(=O)Nc2c(NC(=O)CN3CCN(c4ccccc4)CC3)ccc3c2C(=O)c2ccccc2C3=O)cc1 [CC-45] ... False
O=C(CCl)Nc1ccc2c(c1NC(=O)c1ccccc1Cl)C(=O)c1ccccc1C2=O [CC-16] ... True
Cc1cc(C(=O)Nc2c(NC(=O)CCl)ccc3c2C(=O)c2ccccc2C3=O)c(C)o1 [CC-30] ... True
Cc1ccc(C(=O)Nc2c(NC(=O)CN3CCN(c4ncccn4)CC3)ccc3c2C(=O)c2ccccc2C3=O)cc1 [CC-50] ... False
Cc1cccc(C(=O)Nc2c(NC(=O)CCl)ccc3c2C(=O)c2ccccc2C3=O)c1 [CC-11] ... True
O=C(CCl)Nc1ccc2c(c1NC(=O)C1CCCCC1)C(=O)c1ccccc1C2=O [CC-26] ... True
O=C(CCl)Nc1ccc2c(c1NC(=O)c1ccccc1)C(=O)c1ccccc1C2=O [CC-09] ... False

The measured values listed here are drawn from patent US8530465B2.
